Target: Hemagglutinin (Influenza A virus (A/Puerto Rico/8/1934(H1N1)), UniProt P03452)
Sequence (P03452 whole entry): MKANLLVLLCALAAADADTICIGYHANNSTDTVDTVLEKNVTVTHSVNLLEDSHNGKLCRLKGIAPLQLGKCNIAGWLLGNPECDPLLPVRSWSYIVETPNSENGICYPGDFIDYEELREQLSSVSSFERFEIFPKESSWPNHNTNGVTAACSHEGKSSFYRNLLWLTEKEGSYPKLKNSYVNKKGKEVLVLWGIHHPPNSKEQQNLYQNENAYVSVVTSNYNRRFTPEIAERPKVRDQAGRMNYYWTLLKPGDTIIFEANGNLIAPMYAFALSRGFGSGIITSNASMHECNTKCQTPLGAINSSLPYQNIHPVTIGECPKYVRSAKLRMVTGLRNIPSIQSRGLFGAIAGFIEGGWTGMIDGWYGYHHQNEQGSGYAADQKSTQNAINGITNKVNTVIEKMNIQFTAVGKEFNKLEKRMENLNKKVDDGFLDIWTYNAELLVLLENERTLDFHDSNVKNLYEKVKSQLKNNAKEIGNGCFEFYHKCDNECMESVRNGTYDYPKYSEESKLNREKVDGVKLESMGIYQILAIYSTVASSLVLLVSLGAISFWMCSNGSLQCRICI
Test: Binding affinity to recombinant Influenza A virus (A/California/04/2009 (H1N1)) hemagglutinin by SPR assay
PROPERTY: pKd
One number for each entry, as −log10 of the molar value.

The cases that follow already have their pKd on record.
1) C[C@H]1[C@H](C)CC[C@]2(C(=O)NCCNC(=O)c3ccccc3O)CC[C@]3(C)C(=CC[C@@H]4[C@@]5(C)CC[C@H](O)C(C)(C)[C@@H]5CC[C@]43C)[C@H]12	4.81
2) C[C@H]1[C@H](C)CC[C@]2(C(=O)O)CC[C@]3(C)C(=CC[C@@H]4[C@@]5(C)CC[C@H](O)C(C)(C)[C@@H]5CC[C@]43C)[C@H]12	4.33

Lab note: next compound to report on.
Complete the entry with pKd for CC1(C)CC[C@]2(C(=O)NCCNC(=O)c3ccccc3O)CC[C@]3(C)C(=CC[C@@H]4[C@@]5(C)CC[C@H](O)C(C)(C)[C@@H]5CC[C@]43C)[C@@H]2C1
4.44

----------
Test system: MDCK
Assay: Cytotoxicity against MDCK cells at 50 uM after 40 hrs by CellTiter-Glo assay
Type: cell-based, Canis lupus familiaris
Conditions: dog
PROPERTY: Activity

The cases that follow already have their Activity on record.
1) C=C(C)[C@@H]1CC[C@]2(C(=O)NCCNC(=O)c3cc(O)c(O)c(O)c3)CC[C@]3(C)[C@H](CC[C@@H]4[C@@]5(C)CC[C@H](O)C(C)(C)[C@@H]5CC[C@]43C)[C@@H]12	Toxic
2) C[C@H]1[C@H](C)CC[C@]2(C(=O)NCCNC(=O)/C=C/c3ccccc3)CC[C@]3(C)C(=CC[C@@H]4[C@@]5(C)CC[C@H](O)C(C)(C)[C@@H]5CC[C@]43C)[C@H]12	Non-Toxic
3) C[C@H]1[C@H](C)CC[C@]2(C(=O)NCCNC(=O)c3cc(OCc4ccccc4)c(OCc4ccccc4)c(OCc4ccccc4)c3)CC[C@]3(C)C(=CC[C@@H]4[C@@]5(C)CC[C@H](O)C(C)(C)[C@@H]5CC[C@]43C)[C@H]12	Non-Toxic
4) CC1(C)CC[C@]2(C(=O)NCCNC(=O)c3cc(OCc4ccccc4)cc(OCc4ccccc4)c3)CC[C@]3(C)C(=CC[C@@H]4[C@@]5(C)CC[C@H](O)C(C)(C)[C@@H]5CC[C@]43C)[C@@H]2C1	Non-Toxic
5) CC1(C)CC[C@]2(C(=O)NCCNC(=O)c3ccc(O)cc3)CC[C@]3(C)C(=CC[C@@H]4[C@@]5(C)CC[C@H](O)C(C)(C)[C@@H]5CC[C@]43C)[C@@H]2C1	Non-Toxic
6) C[C@H]1[C@H](C)CC[C@]2(C(=O)NCCNC(=O)/C=C/c3ccc(O)cc3)CC[C@]3(C)C(=CC[C@@H]4[C@@]5(C)CC[C@H](O)C(C)(C)[C@@H]5CC[C@]43C)[C@H]12	Non-Toxic
7) CC1(C)CC[C@]2(C(=O)NCCNC(=O)c3ccc(O)cc3O)CC[C@]3(C)C(=CC[C@@H]4[C@@]5(C)CC[C@H](O)C(C)(C)[C@@H]5CC[C@]43C)[C@@H]2C1	Toxic
8) C=C(C)[C@@H]1CC[C@]2(C(=O)NCCNC(=O)c3ccc(O)cc3)CC[C@]3(C)[C@H](CC[C@@H]4[C@@]5(C)CC[C@H](O)C(C)(C)[C@@H]5CC[C@]43C)[C@@H]12	Toxic
9) C=C(C)[C@@H]1CC[C@]2(C(=O)NCCNC(=O)/C=C/c3ccccc3)CC[C@]3(C)[C@H](CC[C@@H]4[C@@]5(C)CC[C@H](O)C(C)(C)[C@@H]5CC[C@]43C)[C@@H]12	Non-Toxic

Lab note: next molecule to report on.
Complete the entry with Activity for C=C(C)[C@@H]1CC[C@]2(C(=O)NCCNC(=O)/C=C/c3ccc(O)cc3)CC[C@]3(C)[C@H](CC[C@@H]4[C@@]5(C)CC[C@H](O)C(C)(C)[C@@H]5CC[C@]43C)[C@@H]12
Non-Toxic

----------
Tested on: MDCK
Assay: Cytotoxicity against MDCK cells at 50 uM after 40 hrs by CellTiter-Glo assay
Format: cell-based, Canis lupus familiaris
Conditions: dog
PROPERTY: Activity

1. CC1(C)CC[C@]2(C(=O)NCCNC(=O)c3cc(OCc4ccccc4)c(OCc4ccccc4)c(OCc4ccccc4)c3)CC[C@]3(C)C(=CC[C@@H]4[C@@]5(C)CC[C@H](O)C(C)(C)[C@@H]5CC[C@]43C)[C@@H]2C1	Non-Toxic
2. C[C@H]1[C@H](C)CC[C@]2(C(=O)NCCNC(=O)c3cc(O)cc(O)c3)CC[C@]3(C)C(=CC[C@@H]4[C@@]5(C)CC[C@H](O)C(C)(C)[C@@H]5CC[C@]43C)[C@H]12	Toxic
3. C[C@H]1[C@H](C)CC[C@]2(C(=O)NCCNC(=O)c3ccc(OCc4ccccc4)cc3)CC[C@]3(C)C(=CC[C@@H]4[C@@]5(C)CC[C@H](O)C(C)(C)[C@@H]5CC[C@]43C)[C@H]12	Non-Toxic
4. C=C(C)[C@@H]1CC[C@]2(C(=O)NCCNC(=O)c3cc(OCc4ccccc4)c(OCc4ccccc4)c(OCc4ccccc4)c3)CC[C@]3(C)[C@H](CC[C@@H]4[C@@]5(C)CC[C@H](O)C(C)(C)[C@@H]5CC[C@]43C)[C@@H]12	Non-Toxic

----------
Test system: Influenza A virus
Experiment: Antiviral activity against Influenza A virus A/WSN/33/H1N1 infected in MDCK cells assessed as reduction in virus-induced cytopathic effect after 40 hrs by CellTiter-Glo assay
Type: functional, organism-based
Conditions: A/WSN/33/H1N1, MDCK
Could you please report measured IC50 for the items listed next?
Answers are plain numbers, in µM.

The cases that follow already have their IC50 on record.
1) C=C(C)[C@@H]1CC[C@]2(C(=O)NCCNC(=O)/C=C/c3ccc(O)cc3)CC[C@]3(C)[C@H](CC[C@@H]4[C@@]5(C)CC[C@H](O)C(C)(C)[C@@H]5CC[C@]43C)[C@@H]12	15.7
2) C[C@H]1[C@H](C)CC[C@]2(C(=O)NCCNC(=O)/C=C/c3ccccc3)CC[C@]3(C)C(=CC[C@@H]4[C@@]5(C)CC[C@H](O)C(C)(C)[C@@H]5CC[C@]43C)[C@H]12	18.3
3) CC1(C)CC[C@]2(C(=O)NCCNC(=O)c3ccccc3O)[C@H](O)C[C@]3(C)C(=CC[C@@H]4[C@@]5(C)CC[C@H](O)C(C)(C)[C@@H]5CC[C@]43C)[C@@H]2C1	5.84

Consider the following items and state reported IC50 for each.
1. C[C@H]1[C@H](C)CC[C@]2(C(=O)NCCNC(=O)c3cc(OCc4ccccc4)c(OCc4ccccc4)c(OCc4ccccc4)c3)CC[C@]3(C)C(=CC[C@@H]4[C@@]5(C)CC[C@H](O)C(C)(C)[C@@H]5CC[C@]43C)[C@H]12
2. C[C@H]1[C@H](C)CC[C@]2(C(=O)NCCNC(=O)c3ccccc3O)CC[C@]3(C)C(=CC[C@@H]4[C@@]5(C)CC[C@H](O)C(C)(C)[C@@H]5CC[C@]43C)[C@H]12

1. 32.9
2. 5.8

----------
Test system: MDCK
Experiment: Cytotoxicity against MDCK cells at 50 uM after 40 hrs by CellTiter-Glo assay
Assay type: cell-based, Canis lupus familiaris
Conditions: dog
PROPERTY: Activity

1. CC1(C)CC[C@]2(C(=O)NCCNC(=O)/C=C/c3ccccc3)CC[C@]3(C)C(=CC[C@@H]4[C@@]5(C)CC[C@H](O)C(C)(C)[C@@H]5CC[C@]43C)[C@@H]2C1	Toxic
2. CC1(C)CC[C@]2(C(=O)NCCNC(=O)c3cc(O)c(O)c(O)c3)CC[C@]3(C)C(=CC[C@@H]4[C@@]5(C)CC[C@H](O)C(C)(C)[C@@H]5CC[C@]43C)[C@@H]2C1	Toxic

----------
Tested on: MDCK
Assay: Cytotoxicity against MDCK cells at 50 uM after 40 hrs by CellTiter-Glo assay
Type: cell-based, Canis lupus familiaris
Details: dog
PROPERTY: Activity

The cases that follow already have their Activity on record.
1. C[C@H]1[C@H](C)CC[C@]2(C(=O)NCCNC(=O)c3ccccc3O)CC[C@]3(C)C(=CC[C@@H]4[C@@]5(C)CC[C@H](O)C(C)(C)[C@@H]5CC[C@]43C)[C@H]12	Non-Toxic
2. CC1(C)CC[C@]2(C(=O)NCCNC(=O)c3cc(O)cc(O)c3)CC[C@]3(C)C(=CC[C@@H]4[C@@]5(C)CC[C@H](O)C(C)(C)[C@@H]5CC[C@]43C)[C@@H]2C1	Toxic
3. C[C@H]1[C@H](C)CC[C@]2(C(=O)NCCNC(=O)c3ccc(O)cc3O)CC[C@]3(C)C(=CC[C@@H]4[C@@]5(C)CC[C@H](O)C(C)(C)[C@@H]5CC[C@]43C)[C@H]12	Toxic
4. CC1(C)CC[C@]2(C(=O)NCCNC(=O)c3cc(OCc4ccccc4)cc(OCc4ccccc4)c3)[C@H](O)C[C@]3(C)C(=CC[C@@H]4[C@@]5(C)CC[C@H](O)C(C)(C)[C@@H]5CC[C@]43C)[C@@H]2C1	Non-Toxic

Consider the following items and state reported Activity for each.
1. CC1(C)CC[C@]2(C(=O)NCCNC(=O)c3cc(OCc4ccccc4)c(OCc4ccccc4)c(OCc4ccccc4)c3)[C@H](O)C[C@]3(C)C(=CC[C@@H]4[C@@]5(C)CC[C@H](O)C(C)(C)[C@@H]5CC[C@]43C)[C@@H]2C1
2. CC1(C)CC[C@]2(C(=O)NCCNC(=O)/C=C/c3ccc(O)cc3)CC[C@]3(C)C(=CC[C@@H]4[C@@]5(C)CC[C@H](O)C(C)(C)[C@@H]5CC[C@]43C)[C@@H]2C1
3. C=C(C)[C@@H]1CC[C@]2(C(=O)NCCNC(=O)c3cc(O)cc(O)c3)CC[C@]3(C)[C@H](CC[C@@H]4[C@@]5(C)CC[C@H](O)C(C)(C)[C@@H]5CC[C@]43C)[C@@H]12
4. CC1(C)CC[C@]2(C(=O)NCCNC(=O)c3ccc(OCc4ccccc4)cc3)CC[C@]3(C)C(=CC[C@@H]4[C@@]5(C)CC[C@H](O)C(C)(C)[C@@H]5CC[C@]43C)[C@@H]2C1
5. CC1(C)CC[C@]2(C(=O)NCCNC(=O)c3ccc(O)cc3O)[C@H](O)C[C@]3(C)C(=CC[C@@H]4[C@@]5(C)CC[C@H](O)C(C)(C)[C@@H]5CC[C@]43C)[C@@H]2C1
6. CC1(C)CC[C@]2(C(=O)NCCNC(=O)c3ccccc3O)[C@H](O)C[C@]3(C)C(=CC[C@@H]4[C@@]5(C)CC[C@H](O)C(C)(C)[C@@H]5CC[C@]43C)[C@@H]2C1

1: Non-Toxic; 2: Non-Toxic; 3: Toxic; 4: Non-Toxic; 5: Toxic; 6: Non-Toxic
